target: T1, SARS-CoV-2 spike trimer S (Wuhan, SmT1) (SARS-CoV-2 Wuhan); assay: ELISA, coated antigen, apparent EC50
T1 construct: extracellular domain
Reported pEC50 values follow for various binders
Recall that pEC50 is obtained by taking minus log10 of the concentration measured in molar.

# annotated cases, reported pEC50 shown
INSERT INTO results (binder, observed_value) VALUES
  ('NRCoV2-SR04 VHH-Fc (Fc fusion, bivalent) QVQLVESGGGLVQAGGSLRLSCAASGRTFSSHTVGWYRQAPGKQRDLVAAISMGGNTNYADYADSVKGRFTISRDNAKNTLYLQMNSLKPEDTAVYYCNTAALVGNRLLPMATITWGQGTQVTVSS', 9.70),
  ('NRCoV2-SR02 VHH-Fc (Fc fusion, bivalent) EVQLVDSGGGLVQAGGSLRLSCTASEFTLNYYSIGWFRQSPGKEREGVSCIRYSGGGIDYADSVKGRFTISRDNAKNTVYLTMNSLKPEDTAVYYCAADRLYSRACPTAGGRNYWGQGTQVTVSS', 9.96),
  ('NRCoV2-MRed06 VHH-Fc (Fc fusion, bivalent) EVQLVESGGGLVQAGGSLRLSCAASGFTLAYYAIGWFRQAPGKEREGVSCISSSDGSAHYADSVKGRFTISRDNAKNTVSLQMNSLKPEDTAVYYCATDSFSSCSDYESGMDFWGKGTQVTVSS', 9.40);

Prompt line: Which pEC50 reading was recorded for the binder NRCoV2-SR01 VHH-Fc (Fc fusion, bivalent) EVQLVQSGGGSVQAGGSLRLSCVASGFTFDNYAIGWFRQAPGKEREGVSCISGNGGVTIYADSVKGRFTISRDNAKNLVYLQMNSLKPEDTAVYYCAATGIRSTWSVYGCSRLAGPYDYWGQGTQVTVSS ?
Response line: 9.89

Just for reference, patent US20240270826A1 is where these values come from.
